# assayed-system: Solute carrier family 2, facilitated glucose transporter member 1 (Homo sapiens)
# run-description: ST_JUDE_LEISH: Cytotoxicity at 2uM final concentration against transgenic Leishmania Mexicana promastigotes LmGLUT1 that are glucose transport deficient and complemented with the human glucose transporter GLUT1. Activity is measured by DNA content using SYBR green in vitro
# Assay type: functional
quantity: inhibition (%)
// return numeric value only (unit: %, not printed)

Some solved entries appear below for comparison.
Prompt: Kindly indicate its recorded inhibition. Item: NC1CCN(Cc2ccc(-c3ccc(-c4nc5cc(F)ccc5[nH]4)s3)cc2)C1 (stereo not given)
Completion: 0.37

Prompt: // fetch inhibition given entry Cc1cc(N[C@@H](CC(C)C)C(=O)Nc2ccccc2)nc(NCc2ccccc2C)n1
Completion: 8.7

Prompt: Identify measured inhibition associated with O=C(Nc1ccc(-c2cccc(-c3nc4cc(C(F)(F)F)ccc4[nH]3)c2)cc1)c1ccc(=O)[nH]n1
Completion: 3.7

Prompt: Look up inhibition of Cc1sc2ncnc(Sc3nc4ccccc4[nH]3)c2c1C and report it.
Completion: 5.47

Prompt: Look up and report measured inhibition for this entry: COc1ccc(CN2CCCN(Cc3ccc(C(=O)Nc4ccc(Cl)cc4)cc3)CC2)cc1
Completion: 4.35

Prompt: Specify reported inhibition for the compound shown: O=C(N1CCN(c2ccnc3cc4c(cc23)N(Cc2ccccc2)CC4)CC1)C(F)(F)F
Completion: 2.23

Prompt: Complete the entry with inhibition for COc1ccc(C2C(C(=O)Nc3ccc4c(c3)OCO4)c3cc(OC)c(OC)cc3C(=O)N2C)cc1 (stereo not given)
Completion: 2.12

Prompt: Supply measured inhibition of CCc1nc(N)nc(N)c1-c1ccc2c(c1)CCCC2 in your reply.
Completion: 2.54

Shifting focus to the compound that follows.
Prompt: Please give the documented inhibition of NC(=O)c1ccsc1NC(=O)CNC(c1ccccc1)c1ccc(Cl)cc1 (stereo not given)
Completion: 6.13
